Origin of values: patent US6410249B1

Target: receptor 5.24 (Carassius auratus)
Construct: The receptor 5.24 full length cDNA detects 1-2 bands in genomic DNA blots; expressed in transfected cells; host or cells: HEK 293 cells expressing SV40 large T antigen (293-TSA)
Sequence (Q9PW88 25-877): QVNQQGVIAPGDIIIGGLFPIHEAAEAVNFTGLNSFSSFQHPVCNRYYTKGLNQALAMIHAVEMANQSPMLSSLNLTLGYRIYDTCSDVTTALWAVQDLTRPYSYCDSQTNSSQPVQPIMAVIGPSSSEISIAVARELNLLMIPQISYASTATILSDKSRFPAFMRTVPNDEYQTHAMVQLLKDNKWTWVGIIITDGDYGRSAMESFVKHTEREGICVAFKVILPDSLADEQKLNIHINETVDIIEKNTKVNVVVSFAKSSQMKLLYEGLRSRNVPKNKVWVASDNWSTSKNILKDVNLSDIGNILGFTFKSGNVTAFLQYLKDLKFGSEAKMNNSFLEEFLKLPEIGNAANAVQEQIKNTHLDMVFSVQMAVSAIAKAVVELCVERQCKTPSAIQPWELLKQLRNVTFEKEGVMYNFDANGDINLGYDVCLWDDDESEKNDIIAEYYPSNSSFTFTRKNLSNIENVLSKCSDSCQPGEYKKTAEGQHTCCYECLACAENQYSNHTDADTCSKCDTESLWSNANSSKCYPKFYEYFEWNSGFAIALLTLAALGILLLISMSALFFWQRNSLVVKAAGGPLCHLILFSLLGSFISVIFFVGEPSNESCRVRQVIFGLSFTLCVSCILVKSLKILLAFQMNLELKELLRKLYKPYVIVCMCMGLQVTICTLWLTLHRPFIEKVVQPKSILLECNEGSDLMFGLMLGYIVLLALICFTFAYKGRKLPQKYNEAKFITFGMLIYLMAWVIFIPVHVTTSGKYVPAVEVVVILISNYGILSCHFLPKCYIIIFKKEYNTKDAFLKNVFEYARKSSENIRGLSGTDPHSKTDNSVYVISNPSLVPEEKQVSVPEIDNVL
Assay: evoked currents in Xenopus oocytes expressing receptor 5.24 (two-electrode voltage clamp)
Format: cell-based, goldfish
Measurement label: activation of receptor 5.24 (evoked currents), in words

Previously resolved entries follow.
{"Molecule": "CSCC[C@H](N)C(=O)O [L-Methionine]", "Result": "smaller responses"}
{"Molecule": "N[C@@H](CO)C(=O)O [L-Serine]", "Result": "smaller responses"}
{"Molecule": "C[C@@H](O)[C@H](N)C(=O)O [L-Threonine]", "Result": "smaller responses"}
{"Molecule": "CC[C@H](C)[C@H](N)C(=O)O [L-Isoleucine]", "Result": "smaller responses"}
{"Molecule": "N[C@@H](Cc1ccc(O)cc1)C(=O)O [L-Tyrosine]", "Result": "little or no response"}

Now consider the entry below.
Provide only the value of recorded activation of receptor 5.24 (evoked currents), in words for N[C@@H](Cc1c[nH]cn1)C(=O)O [L-Histidine]
little or no response

###

biological target: receptor 5.24 (Carassius auratus); construct: The receptor 5.24 full length cDNA detects 1-2 bands in genomic DNA blots; expressed in transfected cells; host or cells: HEK 293 cells expressing SV40 large T antigen (293-TSA); experiment: 3H-L-arginine saturation binding to membranes of receptor 5.24-expressing HEK 293 cells; set-up: species or system goldfish; details: mean±SEM, n=4; read-out: dissociation constant (Kd)
Measurement label: pKd
The value called pKd is obtained by taking minus log10 of the concentration in mol/L.

Determine its reported pKd: N=C(N)NCCC[C@H](N)C(=O)O [L-Arginine]
6.92
